Target: T1, human EPH receptor A5 (EphA5) expressed on cells (human, UniProt P54756 25-1037)
T1 construct: Cell line (H460 stably expressing EphA5; HEK-293T transfected with EPHA5 clone or wild-type construct; lung cancer lines with endogenous or variable expression); also called cell-surface EphA5; wild-type target protein
T1 sequence (P54756 25-1037 limits assumed): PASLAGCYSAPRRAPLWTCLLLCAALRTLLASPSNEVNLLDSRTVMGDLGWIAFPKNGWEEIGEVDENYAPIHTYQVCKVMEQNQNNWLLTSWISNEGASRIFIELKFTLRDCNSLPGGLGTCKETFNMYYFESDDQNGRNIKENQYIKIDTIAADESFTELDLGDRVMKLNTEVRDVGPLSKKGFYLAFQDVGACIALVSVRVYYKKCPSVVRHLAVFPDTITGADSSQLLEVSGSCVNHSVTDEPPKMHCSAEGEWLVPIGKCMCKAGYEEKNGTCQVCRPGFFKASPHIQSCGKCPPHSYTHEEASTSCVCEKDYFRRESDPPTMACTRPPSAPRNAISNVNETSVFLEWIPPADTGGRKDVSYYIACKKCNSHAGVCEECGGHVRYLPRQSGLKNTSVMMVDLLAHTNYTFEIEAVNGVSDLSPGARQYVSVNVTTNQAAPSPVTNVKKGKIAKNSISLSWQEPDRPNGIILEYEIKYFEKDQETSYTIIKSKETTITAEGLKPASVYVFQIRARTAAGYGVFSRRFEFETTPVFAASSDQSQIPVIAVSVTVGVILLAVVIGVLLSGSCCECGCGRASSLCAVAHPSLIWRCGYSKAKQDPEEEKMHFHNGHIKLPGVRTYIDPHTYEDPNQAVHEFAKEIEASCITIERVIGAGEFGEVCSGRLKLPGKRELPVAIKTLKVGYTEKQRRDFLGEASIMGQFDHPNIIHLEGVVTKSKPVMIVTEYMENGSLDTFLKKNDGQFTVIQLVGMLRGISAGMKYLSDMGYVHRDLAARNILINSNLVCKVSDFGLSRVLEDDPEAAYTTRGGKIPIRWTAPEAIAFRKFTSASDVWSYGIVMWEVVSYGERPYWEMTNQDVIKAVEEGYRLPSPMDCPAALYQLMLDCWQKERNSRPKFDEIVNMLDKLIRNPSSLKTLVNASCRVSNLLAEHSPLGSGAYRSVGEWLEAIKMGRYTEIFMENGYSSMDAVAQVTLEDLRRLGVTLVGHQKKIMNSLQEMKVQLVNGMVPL
Assay: flow cytometry on H460 (EphA5+) cells, starting assay concentration 10 µg/mL
Measured quantity: Max. Binding (MFI)
Please append the unit to your numeric answer.

Data point: VH5/VK4 humanized 11C12 antibody (antibody, human IgG1, kappa, V domains shown, Human IgG1/kappa; lead variant, tested as HEK supernatant and as protein purified from CHO; also called H5K4) VH: EVQLVESGGGLVQPGGSLKLSCAASGFTFSTFGIHWVRQAPGKGLEWVAYISGASTTIYYADSVKGRFTISRDNSKNTLYLQMNSLRAEDTAVYYCARYGTSFPYGLDYWGQGTLVTVSS VL: DIVMTQSPDSLAVSLGERATINCKSSQSVDYDGDSYMNWYQQKPGKAPKLLIYGASNLESGIPDRFSGSGSGTDFTLTISRLEPEDAASYYCQQSNEDPFTFGQGTKLEIKR ; Max. Binding (MFI) = 35900 MFI

Hey, just so you know, these numbers are from patent US20240115722A1.
